- System: KB-3-1
- testMethodNotes: Cytotoxic Profiling of Annotated Libraries Using Quantitative High-Throughput Screening (AID 1296008); note: nearly all actives have a fitted effect of over 60% in size
- particulars: Five cell lines viability, CellTiter-Glo ATP luminescence, 48-72 h
- Experimental: Cell-based phenotypic screening is a commonly used approach to discover biological pathways, novel drug targets, chemical probes and high-quality hit-to-lead molecules. […] A pintool (Kalypsys) was used to transfer 23 nL of compound solution to the 1536-well assay plates. […] Plates were left at room temperature for 10 min before imaging the ATP-coupled luminescence using a ViewLux microplate imager (PerkinElmer, Waltham, MA).
Results filed as inconclusive are left out. Calls of active or inactive are those of the source. Calls come from the whole dose curve; as a rule, active = well fitted inhibition curve with a large enough effect; inconclusive = small, poorly fitted or top-dose-only effect; inactive = flat fitted curve, though single readings scatter.
Classes used: True for active, False for inactive

>>> cat("C=C(C(=O)O)[C@H]1C[C@]2(C)[C@@H](O)CC[C@]23O[C@H]1C[C@@H]3C")
"False"
>>> cat("COc1ccc2[nH]c3c(-c4cccc5ccccc45)nccc3c2c1")
"True"
>>> cat("O=C(Nc1ccn[nH]1)c1c(F)cccc1F")
"False"
>>> cat("CC(=O)O[C@@H]1[C@@H](OC(=O)/C=C/c2ccccc2)[C@@H](OC(C)=O)[C@H](O[C@H]2[C@@H]3C=CO[C@@H](O[C@@H]4O[C@H](CO)[C@@H](O)[C@H](O)[C@H]4O)[C@@H]3[C@@]3(CO)O[C@@H]23)O[C@H]1C")
"False"
>>> cat("CC(=O)OC1CC2C3(C)CCC(OC(=O)CC(=O)O)C(C)(C)C3CCC2(C)C2(C)CCC(C3(C)CCC(=O)O3)C12 (configuration not stated)")
"False"
>>> cat("Cc1ccc(C(=O)N(CCCN)C(c2nc3cc(Cl)ccc3c(=O)n2Cc2ccccc2)C(C)C)cc1 (configuration not stated)")
"True"
>>> cat("CC1=C(CO)C(=O)O[C@@H]([C@@H](C)[C@H]2CC[C@H]3[C@@H]4C[C@H]5O[C@]56[C@@H](O)C=CC(=O)[C@]6(C)[C@H]4CC[C@]23C)C1")
"True"

---

- System: Es-2
- testMethodNotes: Primary qHTS to identify gynecologic anti-cancer compounds using libraries of approved drugs and bioactive compounds (AID 1345084); note: nearly all actives have a fitted effect of over 55% in size
- particulars: Gynecologic cancer cell panel viability, ATPlite luminescence, 48 h; series mostly up to 57.5 µM
Inconclusive results are not listed. Calls of active or inactive are those of the source. The call rests on the fitted dose curve; in most records, active means well fitted cell-killing curve with a large enough effect; inconclusive means small, poorly fitted or top-dose-only effect, or effect the other way; inactive means flat fitted curve, though single readings scatter.
Classes used: active, inactive

>>> cat("CCC(O)C(C)C1CCC(C(C)C(=O)O)O1 (configuration not stated)")
"inactive"
>>> cat("COc1cccc(C(=O)N2CCN(C(=O)COc3cccc(C)c3)CC2)c1OC")
"inactive"
>>> cat("COC(=O)c1cc(OC)cc(OC)c1C(=O)c1c(OC)cc2c(c1O)C1CCCC(C)(O2)O1 (configuration not stated)")
"inactive"
>>> cat("C[C@@H]1C[C@@H](O)[C@@]23CO[C@@H](O)[C@@H]2CCC[C@@H]3[C@@]12C[C@@H](c1ccoc1)OC2=O")
"inactive"
>>> cat("COc1ccc([C@@]2(O)c3c(ccc4c3OC(C)(CCC=C(C)C)C=C4)NC(=O)[C@@H]2OC)cc1 (some centres not stated)")
"inactive"
>>> cat("CCc1cccc(CC)c1NC(=O)c1nn(C)c2c1CCc1cnc(Nc3ccc(C(=O)NC4CCN(C)CC4)cc3OC(F)(F)F)nc1-2")
"inactive"
>>> cat("C=C(C(=O)O)C1CC2=C(C)CCCC2(C)C[C@@H]1O (some centres not stated)")
"inactive"
>>> cat("C=C[C@]1(C)C=C2CCC3C(C)(CCC[C@@]3(C)C(=O)O)C2CC1 (some centres not stated)")
"inactive"
>>> cat("CNS(=O)(=O)c1ccccc1Nc1nc(Nc2ccc(N3CCN(C)CC3)cc2OC)ncc1Cl")
"active"
>>> cat("COc1cc(C)c(C(=O)Oc2cc(C)c(C(=O)Oc3cc(C)c(C(=O)NC(C)C(=O)O)c(O)c3)c(O[C@@H]3O[C@H](CO)[C@@H](O)[C@H](O)[C@H]3OC(C)=O)c2)c(OC)c1 (some centres not stated)")
"inactive"
>>> cat("CC(C)=CCC/C(C)=C/CO[C@@H]1O[C@H](CO)[C@@H](OC(=O)/C=C/c2ccc(O)cc2)[C@H](O[C@@H]2O[C@@H](C)[C@H](O)[C@@H](O)[C@H]2O)[C@H]1O")
"inactive"
>>> cat("COC(=O)C1=CO[C@@H](O[C@@H]2O[C@H](CO)[C@@H](O)[C@H](O)[C@H]2O)[C@@H]2C(COC(C)=O)=C[C@H](O)[C@H]12")
"inactive"
>>> cat("CC(C)(O)/C=C/C1=CC(=O)[C@@](C)(O)C[C@H]1O")
"inactive"
>>> cat("Cn1cc(-c2ccc3nnc(Sc4ccc5nn(C)cc5c4)n3n2)cn1")
"inactive"
>>> cat("CCCC(=O)C1CCN(c2ncnc3c2CN(C(=O)c2ccc(-c4ccccc4)cc2)CC3)CC1")
"inactive"
>>> cat("C[C@@]12CC[C@@H]3[C@@](CC[C@H]4[C@@]3(C)CCC[C@@]4(C)C(=O)O)(CC1=O)C2")
"inactive"
>>> cat("CC1=C(C(=O)OCc2ccccc2)C(c2ccc(-c3ccccc3)cc2)NC(=O)N1CCCCCC(=O)O (configuration not stated)")
"inactive"

---

- Tested on: KB-3-1
- testMethodNotes: Cytotoxic Profiling of Annotated Libraries Using Quantitative High-Throughput Screening (AID 1296008); note: nearly all actives have a fitted effect of over 60% in size; for max response: % is set by controls: 0 for no effect and ±100 for the full control effect
- particulars: Five cell lines viability, CellTiter-Glo ATP luminescence, 48-72 h; stronger effect = lower value
Inconclusive results are not listed.
Each item that follows carries a reported max response.
readoutLabel: max response (%)

>>> measured("COc1cc(OC)cc(C(=O)Nc2ccc(Cl)c(-c3nc4ccc(N(C)C)cc4[nH]3)c2)c1")
2.52
>>> measured("CS(=O)(=O)N(CC(=O)NCC1CC1)c1cc(C(F)(F)F)ccc1Cl")
5.98
>>> measured("Cc1cccc(/C=N/Nc2cc(N3CCOCC3)n3nc(-c4ccncc4)cc3n2)c1")
-17.8
>>> measured("CN1C2CCC1CC(OC(=O)[C@H](CO)c1ccccc1)C2 (stereo not given in full)")
-9.98
>>> measured("CC1(C)CC[C@]2(C(=O)O)CC[C@]3(C)C(=CCC4[C@@]5(C)CC[C@H](O[C@@H]6O[C@H](CO)[C@@H](O)[C@H](O)[C@H]6O[C@@H]6O[C@H](CO)[C@@H](O)[C@H](O)[C@H]6O)[C@@](C)(CO)C5CC[C@]43C)[C@@H]2C1 (stereo not given in full)")
8.35
>>> measured("CC(=O)OC1C(c2ccccc2)CCC(c2ccccc2)C1OC(C)=O (stereo not given)")
7.87
>>> measured("CC[C@H](NC(=O)[C@H](CS(=O)(=O)CC1CC1)N[C@@H](c1ccc(F)cc1)C(F)(F)F)C(=O)C(=O)NC1CC1")
3.82
>>> measured("C=C1C(=O)O[C@H]2[C@H]1CC/C(C)=C/CC[C@@]1(C)O[C@@H]21")
-4.28
>>> measured("C=C(C(=O)OC)C1C(O)CC2(C)C(O)CCC(=O)C2C1O (stereo not given)")
2.14
>>> measured("C=C(C(=O)O)C1CCC2(C)CCC(O)C(C)(O)C2C1 (stereo not given)")
1.37
>>> measured("CC(C)(C)c1cc(Br)cc([C@H](CC(=O)O)NC(=O)CNC(=O)c2cc(O)cc(NC3=NCC(O)CN3)c2)c1 (stereo not given in full)")
3.01
>>> measured("C[C@@H]1CC[C@]2(C(=O)O[C@@H]3O[C@H](CO)[C@@H](O)[C@H](O)[C@H]3O)CC[C@]3(C)C(=CCC4[C@@]5(C)C[C@@H](O)[C@H](O)[C@](C)(C(=O)O)C5CC[C@]43C)[C@@H]2[C@]1(C)O (stereo not given in full)")
5.29
>>> measured("O=C(O)/C=C/c1cc2c(cc1O[C@@H]1O[C@H](CO)[C@@H](O)[C@H](O)[C@H]1O)OCO2")
8.77
>>> measured("Cc1ccccc1-n1c([C@H](C)Nc2nc(N)nc3nc[nH]c23)nc2cccc(C)c2c1=O")
-12.5
>>> measured("OC[C@H]1O[C@@H](O[C@H]2[C@H](OCCc3ccccc3)O[C@H](CO)[C@@H](O)[C@@H]2O)[C@H](O)[C@@H](O)[C@@H]1O")
5.74
>>> measured("OCC(CO[C@@H]1O[C@H](CO)[C@@H](O)[C@H](O)[C@H]1O)c1ccc2c(c1)OCO2 (stereo not given in full)")
-7.72
>>> measured("CO[C@H]1C[C@@H]2CC[C@@H](C)[C@@](O)(O2)C(=O)C(=O)N2CCCC[C@H]2C(=O)O[C@H]([C@H](C)C[C@@H]2CC[C@@H](OP(C)(C)=O)[C@H](OC)C2)CC(=O)[C@H](C)/C=C(\\C)[C@@H](O)[C@@H](OC)C(=O)[C@H](C)C[C@H](C)/C=C/C=C/C=C/1C")
3.84
>>> measured("CC(O)/C=C/C1(O)C2(C)COC1(C)CC(O)C2 (stereo not given)")
-4.44
>>> measured("CC(C)=CCC[C@](C)(O)[C@H]1CC[C@]2(C)[C@@H]1[C@H](O)CC1[C@@]3(C)CC[C@H](O)C(C)(C)[C@@H]3[C@@H](O[C@@H]3O[C@H](CO)[C@@H](O)[C@H](O)[C@H]3O[C@@H]3O[C@H](CO)[C@@H](O)[C@H](O)[C@H]3O)C[C@]12C (stereo not given in full)")
3.39
>>> measured("CC1(C)CC[C@]2(C(=O)O[C@@H]3O[C@H](CO)[C@@H](O)[C@H](O)[C@H]3O)CC[C@]3(C)C(=CCC4[C@@]5(C)CC[C@H](O[C@@H]6O[C@H](C(=O)O)[C@@H](O)[C@H](O)[C@H]6O)C(C)(C)C5CC[C@]43C)C2C1 (stereo not given in full)")
6.58
>>> measured("OCc1ccc(O[C@@H]2O[C@H](CO)[C@@H](O)[C@H](O)[C@H]2O)cc1")
-3.37
>>> measured("COc1cc(Br)c(S(=O)(=O)Nc2ccc(C(F)(F)F)c(O[C@@H]3CCN(C)C3)c2)cc1OC")
-11.3
>>> measured("CC(C)(O)C1CCC(C)(C2CCC3(C)C4CCC5C(C)(C(=O)OC6OC(CO)C(O)C(O)C6O)C(O)CC(O)C56CC46CCC23C)O1 (stereo not given)")
-9.11
>>> measured("CC1=CC(=O)CC2C1(O)CCC(C)C21CC(c2ccoc2)OC1=O (stereo not given)")
-1.68
>>> measured("CC(C)CCC[C@@H](C)[C@H]1CC[C@H]2[C@@H]3CC(=O)[C@H]4C[C@@H](O)CC[C@]4(C)[C@H]3CC[C@]12C")
-11.4
